The reported numbers originate from PubChem BioAssay AID1159580.

Assay: chemical genetic growth profiling, strain panel (AID 1159580);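 note: tested at 20 µM; growth read once vehicle control cultures reached saturation at 30 °C; 1 = growth at the plate median or of vehicle wells; lower values mean less growth of the strain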
Conditions: S. cerevisiae deletion strains, growth OD, locus YBR229C, strain ROT2, hits give low values
In all, about 5,500 compounds went through this assay and about 2,000 (36%) were called active. Roughly 18% stayed inconclusive and do not appear here. This is one part of the list.
Rule: measured normalized growth below 1 gets y; anything equal to or greater than 1 gets n.

compound	answer label
CO[C@@H]1C[C@@H](C[C@H]2CC[C@H](C)[C@H]([C@@H](C)C(=O)O)O2)O[C@]2(O[C@](C)([C@H]3CC[C@@](C)(C4O[C@@H](C5O[C@@](O)(CO)[C@H](C)C[C@@H]5C)C[C@@H]4C)O3)C[C@H]2C)[C@@H]1C (some centres not stated)	n

query: Does CCOC(=O)c1c(N=Cc2cc(Br)c(Br)cc2O)sc2c1CCCC2 have normalized growth strictly under 1?
result: y

query: Would you mind doing CCOC(=O)c1cc(-c2ccc(N)cc2)oc1C as well?
result: y

query: Would you mind doing COc1cc(O)cc(/C=C/c2ccccc2)c1 as well?
result: y

query: Would you mind doing CC1=C(/C=C/C(C)=C/C=C/C(C)=C/CO)C(C)(C)CCC1 as well?
result: y

====

Test: chemical genetic growth profiling, strain panel (AID 1159580)
Details: S. cerevisiae deletion strains, growth OD, locus YEL061C, strain CIN8
Out of some 5,500 compounds screened, about 2,000 (36%) were called active. Not shown: some 18% with an inconclusive outcome. Rule as the data show it: active = normalized growth mostly below about 0.91 (no sharp cut-off); inconclusive = no clear call, values can overlap the other calls; inactive = mostly above about 0.92. Some of the results follow.
Answer with one of the outcomes given here: Y = active, N = inactive

Past entries and their recorded results:
compound	answer label
O=c1ccn([C@@H]2O[C@H](COP(=O)(O)OP(=O)(O)OP(=O)(O)O)[C@@H](O)[C@H]2O)c(=O)[nH]1	N
COc1ccccc1NC(=O)N1CCCN(C(=O)c2cccs2)CC1	N
COC(=O)c1cc(OC)c(OC)cc1NS(=O)(=O)c1ccc(C)cc1	N
Cc1ccc(CS/C(N)=N\N)cc1	N
CCOC(=O)c1c(N=Cc2cc(Br)c(Br)cc2O)sc2c1CCCC2	Y

Switching to the query record.
query: Which outcome was assigned to CC(C)(C)c1nc(N)sc1Br in this test?
result: N

====

Assay: chemical genetic growth profiling, strain panel (AID 1159580)
Settings: S. cerevisiae deletion strains, growth OD, locus YLR221C, strain rsa3, hits give low values
Screen size: about 5,500 compounds; about 2,000 (36%) were called active. Roughly 18% stayed inconclusive and do not appear here. Some of the results follow.
assay readout: normalized growth

molecule	normalized growth
OC1CCCCC1N1CCC(c2ccccc2)CC1 (configuration not stated)	1.01 (inactive)

query: Returns the measured normalized growth for the input molecule. Input: Nc1c(Br)cc(Br)cc1CNC1CCC(O)CC1 (configuration not stated)
result: 1.01 (inactive)

query: Would you mind doing CC(COc1ccccc1)N(CCCl)Cc1ccccc1 (configuration not stated) as well?
result: 0.995 (inactive)

query: Would you mind doing Nc1nc2c(c(=O)[nH]1)N(C=O)C(CNc1ccc(C(=O)N[C@@H](CCC(=O)O)C(=O)O)cc1)CN2 (some centres not stated) as well?
result: 1.01 (inactive)

query: Would you mind doing CC1=CC(=O)CC(C)(C)C1(O)/C=C/C(C)=C\C(=O)O (configuration not stated) as well?
result: 1.01 (inactive)

query: Would you mind doing C[C@H](COc1ccccc1)N[C@H](C)[C@H](O)c1ccc(O)cc1 as well?
result: 0.974 (inactive)

query: Would you mind doing CCOC(=O)c1ccc(N)cc1 as well?
result: 1.01 (inactive)

====

Assay: chemical genetic growth profiling, strain panel (AID 1159580)
Settings: S. cerevisiae deletion strains, growth OD, locus YEL061C, strain CIN8 (second series), hits give low values
Screen size: about 5,500 compounds; about 2,000 (36%) were called active. Not shown: some 18% with an inconclusive outcome. The list shows a part of the results.
assay readout: normalized growth
Answer with a number only.

Sample answers from the record:
molecule	assay readout	readout number
CC(=O)O[C@H]1C[C@@H](OC(C)=O)C(C)(C)C2C[C@@H](OC(C)=O)[C@]3(C)C(CC[C@@]4(C)[C@H](c5ccoc5)C(=O)[C@H]5O[C@]543)[C@]21C (stereo partly specified)	normalized growth	0.995
Oc1ccc(/C=C/c2cc(O)cc(O)c2)cc1	normalized growth	1.01
Nc1nccs1	normalized growth	0.991
Nc1c(Br)cc(Br)cc1CNC1CCC(O)CC1 (stereo unspecified)	normalized growth	1.02
CCCN(CCC)CCc1cccc2c1CC(=O)N2	normalized growth	0.981

--- query ---
query: Returns the measured normalized growth for the input molecule. Input: COC(=O)[C@H]1[C@H]2C[C@@H]3c4[nH]c5cc(OC)ccc5c4CCN3C[C@H]2C[C@@H](OC(=O)c2cc(OC)c(OC)c(OC)c2)[C@@H]1OC
result: 0.987

====

Documented normalized growth across a set of compounds
Assay: chemical genetic growth profiling, strain panel (AID 1159580)
Details: S. cerevisiae deletion strains, growth OD, locus YDL214C, strain PRR2, hits give low values
About 2,000 (36%) of roughly 5,500 compounds were called active. Roughly 18% stayed inconclusive and do not appear here. The list shows a part of the results.

query: Returns the measured normalized growth for the input compound. Input: Clc1ccc(-c2noc(CSC3=NCCN3)n2)cc1
result: 0.923 (inactive)

query: Would you mind doing COc1cc(Cl)c(NS(=O)(=O)c2cc(Br)c(Br)s2)c(OC)c1 as well?
result: 0.916 (inactive)

query: Would you mind doing O=C(CCSc1cccs1)Nc1cccc(C(F)(F)F)c1 as well?
result: 0.911 (inactive)

query: Would you mind doing CC(C)(O)C#Cc1ccc(/C=N\Nc2c(Cl)cc(Cl)cc2Cl)cc1 as well?
result: 0.881 (inactive)

====

Test: chemical genetic growth profiling, strain panel (AID 1159580);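 note: tested at 20 µM; growth read once vehicle control cultures reached saturation at 30 °C; 1 = growth at the plate median or of vehicle wells; lower values mean less growth of the strain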
Conditions: S. cerevisiae deletion strains, growth OD, locus YPL241C, strain CIN2, hits give low values
Out of some 5,500 compounds screened, about 2,000 (36%) were called active. Another 18% or so got no clear call; they are omitted. Some of the results follow.
Documented normalized growth across a set of molecules
Answer with a number only.

Sample answers from the record:
molecule	assay readout	readout number
CC[C@@H](C(=O)O)[C@@H]1O[C@@H]([C@@H](C)[C@H](O)[C@H](C)C(=O)[C@H](CC)[C@H]2O[C@]3(C=C[C@@H](O)[C@]4(CC[C@@](C)(C5CC[C@](O)(CC)[C@H](C)O5)O4)O3)[C@H](C)C[C@@H]2C)[C@@H](C)C[C@H]1C (stereo partly drawn)	normalized growth	0.648
COC(=O)c1ccc(S(=O)(=O)NCc2ccccc2)n1C	normalized growth	1.01

--- query ---
query: Returns the measured normalized growth for the input molecule. Input: O=c1cc(N2CCOCC2)oc2c(-c3ccccc3)cccc12
result: 0.998

====

Assay: chemical genetic growth profiling, strain panel (AID 1159580);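 note: tested at 20 µM; growth read once vehicle control cultures reached saturation at 30 °C; 1 = growth at the plate median or of vehicle wells; lower values mean less growth of the strain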
Details: S. cerevisiae deletion strains, growth OD, locus YEL037C, strain rad23, hits give low values
Hit rate of the full screen: of about 5,500 compounds, about 2,000 (36%) were called active. Not shown: some 18% with an inconclusive outcome. This is one part of the list.
assay readout: normalized growth
Answer with a number only.

Sample answers from the record:
compound	assay readout	readout number
COS(C)(=O)=O	normalized growth	1
O=C(NC(Cc1cc(=O)[nH]c2ccccc12)C(=O)O)c1ccc(Cl)cc1 (stereo not given)	normalized growth	0.982
C=CCc1cc(OC)c2c(c1OC)OCO2	normalized growth	0.987

query: Returns the measured normalized growth for the input compound. Input: CC[C@@H]1[C@@H](O)N2C3C[C@H]1C1C(O)[C@]4(C[C@@H]12)c1ccccc1N(C)[C@@H]34 (stereo not given in full)
result: 1.02

====

Assay: chemical genetic growth profiling, strain panel (AID 1159580);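 note: tested at 20 µM; growth read once vehicle control cultures reached saturation at 30 °C; 1 = growth at the plate median or of vehicle wells; lower values mean less growth of the strain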
Conditions: S. cerevisiae deletion strains, growth OD, locus YOR316C, strain cot1, hits give low values
The whole screen tested about 5,500 compounds, of which about 2,000 (36%) were called active. Not shown: some 18% with an inconclusive outcome. This is one part of the list.
Documented normalized growth across a set of compounds
Answer with a number only.

Sample answers from the record:
compound	readout number
COc1cc(C(=O)O)cc(OC)c1O	0.97
O=c1ccn([C@@H]2O[C@H](COP(=O)(O)OP(=O)(O)OP(=O)(O)O)[C@@H](O)[C@H]2O)c(=O)[nH]1	1
COS(C)(=O)=O	1.02
NC(=O)c1cnccn1	1.01
CC(COc1ccccc1)N(CCCl)Cc1ccccc1 (configuration not stated)	1.02
COC(=O)[C@H]1[C@H]2C[C@@H]3c4[nH]c5cc(OC)ccc5c4CCN3C[C@H]2C[C@@H](OC(=O)c2cc(OC)c(OC)c(OC)c2)[C@@H]1OC	1.01

--- query ---
query: Returns the measured normalized growth for the input compound. Input: CC1CC2C(C(O)CC3(C)C2CCC3(O)C(=O)COC(=O)CCC(=O)O)C2(C)C=CC(=O)C=C12 (configuration not stated)
result: 1
